experiment: Cytotoxicity assay (CellTiter-Glo, 72 h), Jurkat; type: cell-based; details: human, Jurkat cells (T lymphoma), conc 0.000762939 uM, raw data (replicates)
measurement kind: viability at 72 h, 0.000762939 uM (%)

[[record]]
compound = "CO[C@H]1C[C@@H]2CC[C@@H](C)[C@@](O)(O2)C(=O)C(=O)N2CCCC[C@H]2C(=O)O[C@H]([C@H](C)C[C@@H]2CC[C@@H](O)[C@H](OC)C2)CC(=O)[C@H](C)/C=C(\\C)[C@@H](O)CC(=O)[C@H](C)C[C@H](C)/C=C/C=C(C)/C=C/1C [Compound 2, 27-demethoxy-19-methyl rapamycin]"
measurement_kind = "viability at 72 h, 0.000762939 uM"
units_of_measure = "%"
numeric_value = 110

[[record]]
compound = "COC1CC2CCC(C)C(O)(O2)C(=O)C(=O)N2CCCCC2C(=O)OC(C(C)CC2CCC(O)C(OC)C2)CC(=O)C(C)C=C(C)C(O)C(OC)C(=O)C(C)CC(C)C=CCCC=C1C (centres unmarked) [Compound 15, 19,20-dihidro-rapamycin]"
measurement_kind = "viability at 72 h, 0.000762939 uM"
units_of_measure = "%"
numeric_value = 101

[[record]]
compound = "CO[C@H]1C[C@@H]2CC[C@@H](C)[C@@](O)(O2)C(=O)C(=O)N2CCCC[C@H]2C(=O)O[C@H]([C@H](C)C[C@@H]2CC[C@@H](O)[C@H](OC)C2)CC(=O)[C@H](C)/C=C(\\C)[C@@H](O)[C@@H](OC)C(=O)[C@H](C)C[C@H](C)/C=C/C=C/C=C/1C [Compound 1, rapamycin, reference compound]"
measurement_kind = "viability at 72 h, 0.000762939 uM"
units_of_measure = "%"
numeric_value = 32.5

[[record]]
compound = "COC1CC2CCC(C)C(O)(O2)C(=O)C(=O)N2CCCCC2C(=O)OC(C(C)CC2CCC(O)C(OC)C2)CCC(C)C=C(C)C(O)C(OC)C(=O)C(C)CC(C)C=CC=CC=C1C (centres unmarked) [Compound 16, 32-desketorapamycin]"
measurement_kind = "viability at 72 h, 0.000762939 uM"
units_of_measure = "%"
numeric_value = 67.7

[[record]]
compound = "CO[C@@H]1/C=C/C=C/[C@@H](C)C[C@@H](C)C(=O)C[C@H](O)/C(C)=C/[C@@H](C)C(=O)C[C@@H]([C@H](C)C[C@@H]2CC[C@@H](O)[C@H](OC)C2)OC(=O)[C@@H]2CCCCN2C(=O)C(=O)[C@]2(O)O[C@@H](CC[C@H]2C)C1 [Compound 9]"
measurement_kind = "viability at 72 h, 0.000762939 uM"
units_of_measure = "%"
numeric_value = 102


The origin of these recorded values is paper PMC7419507.
